# test target: UniProt P13945
# experiment: Homogeneous Time-Resolved Fluorescence (HTRF) cAMP antagonist assay, IC50 determination
# test conditions: CHO-K1 cells stably expressing recombinant receptor, isoproterenol at EC90
endpoint label: IC50 (µM)

(A) CNS(=O)(=O)c1cccc(OC[C@@H](O)CN[C@H]2COC3(CCN(S(=O)(=O)c4cnc5ccc(C)cc5c4O)CC3)C2)c1 [Compound 533]
(B) CNS(=O)(=O)c1cccc(OC[C@@H](O)CNC2COC3(CCN(S(=O)(=O)c4ccc(Br)c(Cl)c4)CC3)C2)c1 (stereo partly shown) [Compound 155]
(C) CNS(=O)(=O)c1cccc(OC[C@@H](O)CNC2COC3(CCN(S(=O)(=O)c4ccc(NCCOC)nc4)CC3)C2)c1 (stereo partly shown) [Compound 426]
Order the above molecules by increasing IC50. List the labels according to the requested ordering.
B, A, C

====

# test target: Beta-3 Adrenergic Receptor (Homo sapiens (Human), UniProt P13945)
# Sequence (P13945 whole entry, species assumed): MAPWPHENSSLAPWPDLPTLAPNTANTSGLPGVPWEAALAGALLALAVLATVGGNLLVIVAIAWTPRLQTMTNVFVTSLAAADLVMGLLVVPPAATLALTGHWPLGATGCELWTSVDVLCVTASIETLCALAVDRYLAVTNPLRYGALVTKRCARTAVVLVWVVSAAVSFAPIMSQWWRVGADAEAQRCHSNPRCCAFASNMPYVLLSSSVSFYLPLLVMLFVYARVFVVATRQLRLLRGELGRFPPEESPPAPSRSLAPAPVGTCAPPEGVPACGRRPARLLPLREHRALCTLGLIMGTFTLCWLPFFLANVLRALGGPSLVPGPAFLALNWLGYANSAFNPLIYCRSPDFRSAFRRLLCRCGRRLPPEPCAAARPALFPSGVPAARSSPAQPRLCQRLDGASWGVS
# experiment: Homogeneous Time-Resolved Fluorescence (HTRF) cAMP antagonist assay, IC50 determination
# test conditions: CHO-K1 cells stably expressing recombinant receptor, isoproterenol at EC90
pIC50: −log10 of the molar value.
endpoint label: pIC50

Known pIC50 results, listed for orientation:
> print(dat)
                                   compound  experimental.value
1  CNS(=O)(=O)c1cccc(OC[C@@H](O)CN[C@H]2COC3(CCN(S(=O)(=O)c4cnc5c(C)cccc5c4O)CC3)C2)c1                7.99
2  CNS(=O)(=O)c1cccc(OC[C@@H](O)CNC2COC3(CCN(S(=O)(=O)c4ccc(C(C)=O)cc4)CC3)C2)c1 (stereo partly shown)                7.59

(P) CNS(=O)(=O)c1cccc(OC[C@@H](O)CNC2COC3(CCN(S(=O)(=O)c4ccc(OC)c(C)c4C)CC3)C2)c1 (stereo partly shown)
(Q) CNS(=O)(=O)c1cccc(OC[C@@H](O)CNC2COC3(CCN(S(=O)(=O)c4ccc5[nH]ncc5c4)CC3)C2)c1 (stereo partly shown)
(R) CNS(=O)(=O)c1cccc(OC[C@@H](O)CNC2COC3(CCN(S(=O)(=O)c4cccc(-c5cncnc5)c4)CC3)C2)c1 (stereo partly shown)
Rank the items in ascending order with respect to pIC50. List the labels according to the requested ordering.
P, Q, R

====

# test target: UniProt P13945
# experiment: Homogeneous Time-Resolved Fluorescence (HTRF) cAMP antagonist assay, IC50 determination
# test conditions: CHO-K1 cells stably expressing recombinant receptor, isoproterenol at EC90
pIC50: −log10 of the molar value.
endpoint label: pIC50

Known pIC50 results, listed for orientation:
> print(dat)
                                   compound     test.target  endpoint.label  experimental.value
1  CNS(=O)(=O)c1cccc(OC[C@@H](O)CN[C@H]2COC3(CCN(S(=O)(=O)c4cnc5[nH]ncc5c4)CC3)C2)c1  UniProt P13945           pIC50                7.43
2  CNS(=O)(=O)c1cccc(OC[C@@H](O)CN[C@@H]2COC3(CCN(S(=O)(=O)c4cnn(-c5ccccc5)c4C)CC3)C2)c1  UniProt P13945           pIC50                7.01

(I) CNS(=O)(=O)c1cccc(OC[C@@H](O)CN[C@H]2COC3(CCN(S(=O)(=O)c4ccc5c(c4)N(C)CCO5)CC3)C2)c1
(II) CNS(=O)(=O)c1cccc(OC[C@@H](O)CN[C@H]2COC3(CCN(S(=O)(=O)c4ccc5nccn5c4)CC3)C2)c1
(III) COc1ccc(S(=O)(=O)N2CCC3(CC2)CC(NC[C@H](O)COc2cccc(S(=O)(=O)NCCCN(C)C)c2)CO3)cc1C (stereo partly drawn)
(IV) CNS(=O)(=O)c1cccc(OC[C@@H](O)CN[C@H]2COC3(CCN(S(=O)(=O)c4ccc5[nH]cnc5c4)CC3)C2)c1
// sort entries: pIC50, high to low List the labels according to the requested ordering.
I, IV, II, III
